- TARGET ENTITY: UniProt P22894
- Sequence (P22894 101-467): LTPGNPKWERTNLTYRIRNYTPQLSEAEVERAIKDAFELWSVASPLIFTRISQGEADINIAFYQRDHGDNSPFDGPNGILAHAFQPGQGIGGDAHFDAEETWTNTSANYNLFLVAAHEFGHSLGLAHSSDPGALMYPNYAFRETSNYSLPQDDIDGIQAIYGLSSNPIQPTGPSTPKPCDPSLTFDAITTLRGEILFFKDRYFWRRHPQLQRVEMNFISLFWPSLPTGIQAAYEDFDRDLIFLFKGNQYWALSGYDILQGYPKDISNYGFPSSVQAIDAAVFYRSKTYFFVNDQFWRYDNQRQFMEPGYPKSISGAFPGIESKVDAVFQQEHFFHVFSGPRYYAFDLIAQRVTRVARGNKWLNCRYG
MEASURED METRIC: pIC50
Give bare numbers, as −log10 of the molar value.

Request: Endpoint output: pIC50 of O=c1c2ccccc2nc(-c2ccc(OS(=O)(=O)O)cc2)n1CCCCCCCCCCCCn1cc(Cn2c(-c3ccc(OS(=O)(=O)O)cc3)nc3ccccc3c2=O)nn1 [NSGM 42] . Value?
Response: 4.47

Origin of measurements: paper PMC7465109
